These entries and their values trace back to ChEMBL document CHEMBL4765367.

Tested on: Escherichia coli
assay-procedure: Antimicrobial activity against Escherichia coli O157:H7 assessed as inhibition of microbial growth incubated for 24 hrs by microbroth dilution method
Type: functional
// reported MIC per item
readout-label: MIC

[[record]]
compound = "CCn1cc(C(=O)N[C@H]2C(O)O[C@H](CO)[C@@H](O)[C@@H]2O)c(=O)c2cc(F)c(N3CCN(C(C)=O)CC3)cc21 (stereo partly drawn)"
reported_measurement = "59.9 µM"

[[record]]
compound = "CCn1cc(C(=O)O)c(=O)c2cc(F)c(N3CCNCC3)cc21 [NORFLOXACIN]"
reported_measurement = "< 5.9 µM"

[[record]]
compound = "COc1c(N2C[C@@H]3CCCN[C@@H]3C2)c(F)cc2c(=O)c(C(=O)O)cn(C3CC3)c12 [MOXIFLOXACIN]"
reported_measurement = "< 0.5 µM"

[[record]]
compound = "COc1c(N2C[C@@H]3CCCN(C(C)=O)[C@@H]3C2)c(F)cc2c(=O)c(C(=O)N[C@H]3C(O)O[C@H](CO)[C@@H](O)[C@@H]3O)cn(C3CC3)c12 (stereo partly drawn)"
reported_measurement = "828 µM"

[[record]]
compound = "COc1c(N2C[C@@H]3CCCN(C(C)=O)[C@@H]3C2)c(F)cc2c(=O)c(C(=O)N[C@H]3C(OC(C)=O)O[C@H](COC(C)=O)[C@@H](OC(C)=O)[C@@H]3OC(C)=O)cn(C3CC3)c12 (stereo partly drawn)"
reported_measurement = "162 µM"

[[record]]
compound = "CC(=O)OC[C@H]1OC(OC(C)=O)[C@H](NC(=O)c2cn(C3CC3)c3cc(N4CCN(C(C)=O)CC4)c(F)cc3c2=O)[C@@H](OC(C)=O)[C@@H]1OC(C)=O (stereo partly drawn)"
reported_measurement = "178 µM"

[[record]]
compound = "CC(=O)N1CCN(c2cc3c(cc2F)c(=O)c(C(=O)N[C@H]2C(O)O[C@H](CO)[C@@H](O)[C@@H]2O)cn3C2CC2)CC1 (stereo partly drawn)"
reported_measurement = "234 µM"

[[record]]
compound = "CCn1cc(C(=O)N[C@H]2C(OC(C)=O)O[C@H](COC(C)=O)[C@@H](OC(C)=O)[C@@H]2OC(C)=O)c(=O)c2cc(F)c(N3CCN(C(C)=O)CC3)cc21 (stereo partly drawn)"
reported_measurement = "45.3 µM"


###

Tested on: Stachybotrys chartarum
assay-procedure: Antifungal activity against Stachybotrys chartarum IBT 7711 assessed as reduction in fungal growth incubated for 48 hrs by broth microdilution method
Assay type: functional
Catalogue of compounds with associated log10 of MIC
readout-label: log10 of MIC (log10 of the value in µM)

[[record]]
compound = "CCn1cc(C(=O)N[C@H]2C(OC(C)=O)O[C@H](COC(C)=O)[C@@H](OC(C)=O)[C@@H]2OC(C)=O)c(=O)c2cc(F)c(N3CCN(C(C)=O)CC3)cc21 (stereo partly specified)"
target_entity = "Stachybotrys chartarum"
reported_measurement = 1.66

[[record]]
compound = "CC(=O)N1CCN(c2cc3c(cc2F)c(=O)c(C(=O)N[C@H]2C(O)O[C@H](CO)[C@@H](O)[C@@H]2O)cn3C2CC2)CC1 (stereo partly specified)"
target_entity = "Stachybotrys chartarum"
reported_measurement = 2.67

[[record]]
compound = "COc1c(N2C[C@@H]3CCCN(C(C)=O)[C@@H]3C2)c(F)cc2c(=O)c(C(=O)N[C@H]3C(OC(C)=O)O[C@H](COC(C)=O)[C@@H](OC(C)=O)[C@@H]3OC(C)=O)cn(C3CC3)c12 (stereo partly specified)"
target_entity = "Stachybotrys chartarum"
reported_measurement = 2.51

[[record]]
compound = "CCn1cc(C(=O)N[C@H]2C(O)O[C@H](CO)[C@@H](O)[C@@H]2O)c(=O)c2cc(F)c(N3CCN(C(C)=O)CC3)cc21 (stereo partly specified)"
target_entity = "Stachybotrys chartarum"
reported_measurement = 2.08

[[record]]
compound = "COc1c(N2C[C@@H]3CCCN(C(C)=O)[C@@H]3C2)c(F)cc2c(=O)c(C(=O)N[C@H]3C(O)O[C@H](CO)[C@@H](O)[C@@H]3O)cn(C3CC3)c12 (stereo partly specified)"
target_entity = "Stachybotrys chartarum"
reported_measurement = 0.23

[[record]]
compound = "CC(=O)OC[C@H]1OC(OC(C)=O)[C@H](NC(=O)c2cn(C3CC3)c3cc(N4CCN(C(C)=O)CC4)c(F)cc3c2=O)[C@@H](OC(C)=O)[C@@H]1OC(C)=O (stereo partly specified)"
target_entity = "Stachybotrys chartarum"
reported_measurement = 2.55


###

Tested on: Staphylococcus aureus
assay-procedure: Antimicrobial activity against methicillin-resistant Staphylococcus aureus ATCC 33591 assessed as inhibition of microbial growth incubated for 24 hrs by microbroth dilution method
Format: functional
List of MIC values.
readout-label: MIC

[[record]]
compound = "COc1c(N2C[C@@H]3CCCN(C(C)=O)[C@@H]3C2)c(F)cc2c(=O)c(C(=O)N[C@H]3C(OC(C)=O)O[C@H](COC(C)=O)[C@@H](OC(C)=O)[C@@H]3OC(C)=O)cn(C3CC3)c12 (stereo partly specified)"
reported_measurement = "162 µM"

[[record]]
compound = "CCn1cc(C(=O)N[C@H]2C(O)O[C@H](CO)[C@@H](O)[C@@H]2O)c(=O)c2cc(F)c(N3CCN(C(C)=O)CC3)cc21 (stereo partly specified)"
reported_measurement = "478 µM"

[[record]]
compound = "CCn1cc(C(=O)N[C@H]2C(OC(C)=O)O[C@H](COC(C)=O)[C@@H](OC(C)=O)[C@@H]2OC(C)=O)c(=O)c2cc(F)c(N3CCN(C(C)=O)CC3)cc21 (stereo partly specified)"
reported_measurement = "362 µM"

[[record]]
compound = "COc1c(N2C[C@@H]3CCCN(C(C)=O)[C@@H]3C2)c(F)cc2c(=O)c(C(=O)N[C@H]3C(O)O[C@H](CO)[C@@H](O)[C@@H]3O)cn(C3CC3)c12 (stereo partly specified)"
reported_measurement = "207 µM"

[[record]]
compound = "CCn1cc(C(=O)O)c(=O)c2cc(F)c(N3CCNCC3)cc21 [NORFLOXACIN]"
reported_measurement = "24.4 µM"


###

Tested on: Stachybotrys chartarum
assay-procedure: Antifungal activity against Stachybotrys chartarum IBT 7711 assessed as reduction in fungal growth incubated for 48 hrs by broth microdilution method
Format: functional
Structures can show the parent of a compound that is named as a salt.
This listing pairs molecules with measured MIC.
readout-label: MIC

[[record]]
molecule = "COc1c(N2C[C@@H]3CCCN[C@@H]3C2)c(F)cc2c(=O)c(C(=O)O)cn(C3CC3)c12"
readout_label = "MIC"
reported_measurement = "2.3 µM"

[[record]]
molecule = "CCn1cc(C(=O)O)c(=O)c2cc(F)c(N3CCNCC3)cc21"
readout_label = "MIC"
reported_measurement = "196 µM"

[[record]]
molecule = "O=C(O)c1cn(C2CC2)c2cc(N3CCNCC3)c(F)cc2c1=O [CIPROFLOXACIN HYDROCHLORIDE]"
readout_label = "MIC"
reported_measurement = "85 µM"

[[record]]
molecule = "OC(Cn1cncn1)(Cn1cncn1)c1ccc(F)cc1F"
readout_label = "MIC"
reported_measurement = "102 µM"


###

Tested on: Staphylococcus aureus
assay-procedure: Antimicrobial activity against methicillin-resistant Staphylococcus aureus ATCC 33591 assessed as inhibition of microbial growth incubated for 24 hrs by microbroth dilution method
Format: functional
Structures can show the parent of a compound that is named as a salt.
The entries below are paired with their reported MIC.
readout-label: MIC

[[record]]
compound = "COc1c(N2C[C@@H]3CCCN[C@@H]3C2)c(F)cc2c(=O)c(C(=O)O)cn(C3CC3)c12"
readout_label = "MIC"
reported_measurement = "< 0.5 µM"

[[record]]
compound = "O=C(O)c1cn(C2CC2)c2cc(N3CCNCC3)c(F)cc2c1=O [CIPROFLOXACIN HYDROCHLORIDE]"
readout_label = "MIC"
reported_measurement = "< 5.2 µM"

